Reported interaction score values for the following binders.
# tested_system: T1, O6
# T1 chain: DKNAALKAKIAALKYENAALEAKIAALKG
# test_description: two-hybrid library CCNG1;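 further: natural log of median RNA to DNA barcode read ratio; higher means stronger binding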
Give your answer as a number; write no unit.

Below: 5 binders and their reported interaction score.
DEIAALEAENAALEYKIAALKAENAALEG [O15] ... -2.48
DENAALEAEIAALEYKNAALKAEIAALEG [O5] ... 1.32
DENAALEAKNAALKYKIAALKAKIAALKG [O2] ... -2.66
DKNAALKAKIAALKYENAALEAKIAALKG [O6] ... -2.52
DKNAALKAKIAALKYKNAALKAEIAALEG [O13] ... -1.32

Q: Recorded interaction score of DEIAALEAKIAALKYKNAALKAKNAALKG [O12] , please.
Ans: -2.27

Q: Dear colleague, I am looking for the recorded interaction score of the following binder: DKIAALKAKNAALKYEIAALEAKNAALKG [O16]
Ans: -1.46

Q: Bench note: what interaction score did DENAALEAEIAALEYENAALEAKIAALKG [O14] show?
Ans: 0.213

Q: Using the record for DKNAALKAENAALEYEIAALEAEIAALEG [O1] , report its interaction score.
Ans: -2.86

Q: Report interaction score for DENAQLEQEIAELEQKNAELKWEIAQLEQ [4H1081-bA] please.
Ans: 1.04

Q: Returns the measured interaction score for the input binder. Input: DKNAALKAENAALEYKIAALKAKIAALKG [O10]
Ans: -2.48

Q: Would you kindly share the measured interaction score for DKIAALKAEIAALEYENAALEAENAALEG [O11] ?
Ans: -2.37

Q: Entry DEIAALEAKIAALKYENAALEAENAALEG [O3] : reported interaction score = ?
Ans: -2.73

Q: For the binder shown here, DKIAALKAEIAALEYKNAALKAKNAALKG [O4] , give the reported interaction score.
Ans: -2.27

These data points were gathered from paper PMC10397247.
